- Experiment Notes: NCI Yeast Anticancer Drug Screen. Data for the cln2 rad14 strain (AID 165);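 further: 0% = growth equal to vehicle treated cultures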
- Conditions Used: S. cerevisiae cln2 rad14 strain, at 50.0 µM
The panel holds about 79,000 compounds, 15% with a hit somewhere; the sample as a whole holds those more often. Active and inactive are the calls of the source. No stated cut-off is given here; in the data, active means growth inhibition above about 70%; inactive means the rest.
Classes used: yes (1) for active, no (0) for inactive

[[record]]
compound = "CC(=O)O[C@H]1CC[C@H]2[C@@H]3CCC4=CC(=O)CC[C@@H]4[C@H]3CC[C@]12C"
label = "no (0)"

[[record]]
compound = "CCC(=O)OC1CCn2c1nc1c2C(=O)C(C)=C(N2CC2)C1=O (stereo not drawn)"
label = "no (0)"

[[record]]
compound = "ClC1=NSSC1(Cl)Cl"
label = "yes (1)"

[[record]]
compound = "CC[C@@]1(O)C(=O)OCc2c1cc1n(c2=O)Cc2cc3cc4c(cc3nc2-1)OCO4"
label = "yes (1)"

[[record]]
compound = "CCC1CC2CCC(O2)C(C)C(=O)OC(C)CC2CCC(O2)C(C)C(=O)OC(CC)CC2CCC(O2)C(C)C(=O)OC(C)CC2CCC(O2)C(C)C(=O)O1 (stereo not drawn)"
label = "no (0)"

[[record]]
compound = "[Se]c1ncnc2nc[nH]c12"
label = "no (0)"

[[record]]
compound = "C1CC[N-]CC1.CC(=N\\O)/C(C)=N/O.CC(=N\\O)/C(C)=N/O.OC1[CH-]CCCC1.[Co+2]"
label = "yes (1)"

[[record]]
compound = "CC(C)c1c(O)c(O)c2c(c1O)C(=O)C(O)=C1C(C)(C)CCC[C@@]12C"
label = "yes (1)"

[[record]]
compound = "CCC(C)(c1ccc(O)cc1)c1ccc(O)cc1"
label = "yes (1)"

[[record]]
compound = "O=c1oc2ccccc2c(O)c1C(c1ccc2ccccc2c1)c1c(O)c2ccccc2oc1=O"
label = "no (0)"

[[record]]
compound = "Oc1cccc2cccnc12 (tested in a mixture with another compound)"
label = "no (0)"

[[record]]
compound = "Clc1ccc2c(NCCCCN3OC3c3ccccc3)ccnc2c1 (stereo not drawn)"
label = "no (0)"

[[record]]
compound = "O=C(O)C(O)(c1ccccc1)C1(O)CCCCC1 (stereo not drawn)"
label = "no (0)"

[[record]]
compound = "Cc1nc(Cl)c(CBr)c(Cl)n1"
label = "no (0)"

[[record]]
compound = "O=C1C(Cl)=C(Cl)C(=O)N1c1ccc(F)cc1"
label = "yes (1)"

[[record]]
compound = "CCC1CCCCN1CC(C(C)=O)C(c1ccccc1)c1c(O)c2ccccc2oc1=O (stereo not drawn)"
label = "yes (1)"

[[record]]
compound = "ClCCCCCl"
label = "no (0)"

[[record]]
compound = "C/C(=N\\N=C(N)N)C(CN1CCOCC1)C(c1ccccc1)c1c(O)c2ccccc2oc1=O (stereo not drawn)"
label = "yes (1)"


The reported measurements were obtained from PubChem BioAssay (NCI).
